System: PXR:RXRa (NR concentration 270 nM, RXRa partner concentration 90 nM)
test name: PBM binding z-score (relative to random genomic background probes); higher = stronger binding; sequences stand for … in GC…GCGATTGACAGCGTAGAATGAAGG
Response key: 1 (yes) means PBM binding z-score >= 2; 0 (no) means PBM binding z-score < 2.

GCGACTGGGGCAAAGCAGGTTACTATAAGGTTGG
0 (no)
TCGAGTAGGTTACCAATGGGGCACTCAGCTTTCT
0 (no)
CCTACTGGGCCACGAAAGGTCATCGATTCAGTGA
1 (yes)
CGTATTAGTTGACCATAAGGGCAACCGAAGCTCG
0 (no)
CCTGCTGGGTCAATGGTCAGCTAAAGCAGCTCGC
0 (no)
TCATATAGGTAAGGGTGAAAGTCGAACGATATGA
0 (no)
CCTAGCAGGCCAATCTGAGTCACTCAAGGCTTGA
0 (no)
CTGACTGGGGCAGAAAGGTTACCATACCATCCGG
0 (no)
ACTATTAGTTGAGACGCGGGCAACCGATAGGTTG
0 (no)
CCGACTGGGGCAAGGTTAGCATAACGCACAGCCA
0 (no)
ATCGAAAGGTCCTGAGGTGAGTATACAGAAAGGC
0 (no)
TCTAGCACGCCAGAGGGTCACTCAAGAGGTACGG
0 (no)
AGAATGAGGTTACCCAAGATCAGGGAAACGCTTG
0 (no)
TCTTGTAGACCAACAGGAGGTTAAGAAAGATCGA
0 (no)
AGAATGAGGTTATACGTAGATCAGCGAAGAAAGT
0 (no)
CGTCCGAGGTCAGAGAGGTCAGTGAATGCCGAGT
1 (yes)
CGTCAAAGTTCAACTAAGATAACGTAAAGCACGC
1 (yes)
ACTAGCAGGCCAAGTTTGGGTGACTCAAACAAAG
0 (no)
CCTTACGGGTCACTGACAGGTTGTAGCATTTGGA
1 (yes)
ACTTACGGGTCAACGAGGTTTTAGCACGCGTATA
1 (yes)
CAAACTAGGTCCCAGAGGTCAAAGTCCGTGCGTA
1 (yes)
CGTACAAGGTCATAGGAGGTCAGTGAAGACAGAT
1 (yes)
TAGCCTAGGTCATGCAGGGGCCAGTATAGAAAGC
1 (yes)
GGAACGAGGGCATTCGAGTTGAAAGCATGGCGAT
1 (yes)
CCGAGTAGGTTGTGGGGCATTCAGGCAACGGTGA
0 (no)

---

System: FXR:RXRa (NR concentration 270 nM, RXRa partner concentration 90 nM)
test name: PBM binding z-score (relative to random genomic background probes); higher = stronger binding; sequences stand for … in GC…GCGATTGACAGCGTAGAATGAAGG
Examples of sequences with documented PBM binding z-score follow.
metric name: PBM binding z-score

CCAACTAGGTCAAGAGGTCAAAGTCCGCTTCCCG
6.96
TAGTCTAGGTCAGATCGGGCCAGTATACGCTATA
1.81
GTACCAAAGTGAATAGGTCGTTGATGAGTAGGCG
-0.437
TATACAGGGTCAAAGGCAAGAGTACGAATGTCGA
6.51
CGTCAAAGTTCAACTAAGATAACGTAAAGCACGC
6.92
TCTCGGAGGACACGAAGGTCAGAGTTTTCCAGAG
1.18
CAGACTAGGTCAAGGTCAAAGTCGGTTTGTGCCA
6.13
TCTTGTAGATGAAGCAGGTTAAGAAAGCCTGAGT
0.563
CCTATTAGTTGACCATAAGGTCAACCGAAGCTCG
4.88
TAGCCTAGGTCAATGGGCCAGTATAGTACGCATC
3.09
TGTGCTAGGTCAACGATGGTCAGCTAATCTGCTA
3.38
TATACAGGGTCAAAGGCCAGATTACGAATGTCGA
7.37
TCTAGTTGGTCATAGGTCACACACTCGAAATGCG
3.07
ATACCAAGGTGATTGTGAGGTCGTTGATACTAAC
2.01
ATACCAAGGTGATCGTGAGGTCGTTGATACTAAC
1.86
CCATACAGGTGAGAAGGTAACTCAGCCTCGATTA
0.317
CCTACTGGGCCATTCAGAGATCATTGATCATATG
-0.238
CGTCAAAGTTCAACTAACGTAACGTAAAGCACGC
6.21
TCTGCTAGGTCAACGACGGTCAGCTAATCTGCTA
3.49
ATCGAAAGGTCGAGGTGAATATAGAGAAAGGGAA
4.19
ATCTCCAGGTAAAAGTTCAGTGAATCCCGAGGAT
1.06
TCTTGTAGATTAAAGGTTAAGAAAGCCGAAGCCT
1.25
CCTAGCAGGCCAATCTGGGTCAATCAAGGCTTGA
0.324
TGTCAAAGTTCAAAGGTAAAGTAAGTATCCACAC
7.42
GCGCCTGGGGCATCAGCAGGTTACCATAACTTAA
-0.344
CCTACGGGGCCATCAGGTCATTGATATCAACGTT
2.38

---

Tested on: FXR:RXRa (NR concentration 270 nM, RXRa partner concentration 90 nM)
test name: PBM binding z-score (relative to random genomic background probes); higher = stronger binding; sequences stand for … in GC…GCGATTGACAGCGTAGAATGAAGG
Examples of sequences with documented PBM binding z-score follow.
metric name: PBM binding z-score

TGAATGAGGTTAAAGACCAGGGAACGTGGCGTCG
2.78
TCTTCTAGGTCAACGATGGTCAGCTAATCTGCTA
4
TAGCCAAGGTCATTGGGCCAGTATAGTACGCATC
7.45
CCAGACAGGTGAGAAGGTAACGCAGCCTCGATTA
-0.0305
CCTACTGGGCCAAAATGGTCATTGATGCCGATAA
-0.236
CAGCCTAGGTCAGGGCCAGTAAAGGAGGAACGTT
1.69
CGAACTAGGTCAAGGGCAGTGAATCTCCGCACGC
3.56
TATACAGGGTCAAAGGCCAGAGTCCGAATGTCGA
6.58
GCTGCTAGGTCAACTGATGGTCAGCCAAAGCTCG
3.81
CCGACTGGGGCAGAAAGGTTACGATACCATCCGG
0.702
ACTTTCGGGTCAACGAGGTTATAGCACGCGTATA
6.38
CCTACTGGGCCATCTGGTCATTGATATCAACGTT
-0.161

---

Examples of sequences with documented PBM binding z-score follow.
System: PPARg:RXRa DBDmut IVT, anti-RXR (DBD mutation: RXRa K156A/R161A, NR concentration 270 nM, RXRa partner concentration 90 nM)
test name: PBM binding z-score (relative to random genomic background probes); higher = stronger binding; sequences stand for … in GC…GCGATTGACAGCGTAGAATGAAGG
metric name: PBM binding z-score

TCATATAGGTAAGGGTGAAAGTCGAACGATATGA
2.65
CTTAGCAGGCCAATCTGGGTCACTCAAGGCTTGA
4.54
ATCTCTAGGTAAAAGTTCAGTGGATCCCGAGGAT
2.25
CTCGAAAGGCCGTGCTCAGGTGAGTATACCAAAC
-0.523
ATCTCGAGGTAAAAGTTCAGTGAATCCCGAGGAT
-0.0537
GATACAGGGACAGCTAGAGGCCAGAGTATGGAAA
-0.328

---

System: RARa homodimer (NR concentration 270 nM)
test name: PBM binding z-score (relative to random genomic background probes); higher = stronger binding; sequences stand for … in GC…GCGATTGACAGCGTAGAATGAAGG
Examples of sequences with documented PBM binding z-score follow.
metric name: PBM binding z-score

TTACCAAGGAGAAAGGTCGTTGATGCACGCCTTG
-0.114
ATCTCTAGGTAAAGGTAGTTCAGTGAATGCAAAT
1.7
GCTTACGGGTCAAAGGTTATATCATGAATAGAAT
1.02
AATACAGGGTCACTAGGCCTGAGTAGGTACGAAT
0.431
CGTCCAAGGTCAGCAGGTCAGTGGAAGCGACGTG
0.462
ATCTCTAGATAAAGATAGTTCAGTGAATGCAAAT
0.981
ATATGTAGGTTAGCTGGGGTAATTCAGACTAGGC
0.818
CATACAGGGTCAGCTAGGCCAGACTAGGGACGGC
0.259
CCGAGTAGGTTATGGGGCATCCAGGCAACGGTGA
0.0576
TCGAGTAGGTTACGGGCATTCAGAATGGCGTCGA
-1.16
TCATATTGGTAAATGCTAGGTGAAAGTCCGATCT
1.3
AGTCAAAGTTCAGGACGAGGCAACGTAAAGCACG
0.997

---

Examples of sequences with documented PBM binding z-score follow.
System: VDR:RXRa (NR concentration 270 nM, RXRa partner concentration 90 nM)
test name: PBM binding z-score (relative to random genomic background probes); higher = stronger binding; sequences stand for … in GC…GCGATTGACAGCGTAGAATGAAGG
metric name: PBM binding z-score

GCGACTGGGTCATCAGCAGGTTACCATAACTTAA
2.27
CCGACTGGGGCATAAGGTAACCATAAGCCAGCCC
-0.407
CGTCCAAGGTCAGAGAGGGCAGTGAATGCCGAGT
6.5
TTACCAAGGTGATCTGAGGTCGTTGATCCAACTC
4.13
TCGAGTAGGTTACCAATGGGGCATTGAGCTTTCT
-0.0858
ACTTACGGGCCAACGAGGTTATAGCACGCGTATA
3.84
CCTACTAGGCCAAAGGTCATTGATTCCAATGCTC
5.12
CGAACTAGGTCATCGACAGGACAGTGAATAGTAA
2.57
CCTAGCATGCCAATCTGGGTCACTCAAGGCTTGA
0.733
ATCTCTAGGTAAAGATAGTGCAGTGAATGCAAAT
0.0652
ATCGAAAGGTCGTGAGGTGAGCATACAGAAAGGC
3.19
TCGAGTAGGTTAGTCGGCGCATTCAGCCAACATA
-0.0837
ACAATGAGGTTATTAAGATCAGGGAATTGCGGTC
2.56
TCTAGTTTGTCACGGAGGTCACACACGACGGGTA
4.63
ATCTCTAGGTAAAAGTTCAGTAAATCCCGAGGAT
1.19
TGAATGAGATTAAAGATCAGGGAACGTGGCGTCG
-0.176
TCTTGTAGATCAGCAGGTTTAGAAAGCTGGCCAA
0.532
GCTTACGGGGCAAAGGTTATAGCATGAATAGAAT
2.08
CAAACTAGGTCACCGGAAGGTCAAAGTGCGCATG
6.18
CCGAGTAGGTTATGGGGCATTCATGCAACGGTGA
0.118
TCTGCAAGGTCAGTTGGTCAGCTAACGAGCTGCC
2.19
ATCTCTAGGTAATCAAGTTCAGTGAATGCCGAAC
4.21
GATACAGGGTCAGCTAGAGCCCAGAGTATGGAAA
2.26
CGTCCAAGGTCAAAGGGCAGTGAAGAGATGACGG
4.65
TCATATAGGTAAGACAGGTGAAAGTCGGCATCTA
0.987
CAAACTAAGTCAAAGGTCAAAGTCGAGCCAACCA
5.35
